Attribution: patent US20260078119A1

Target: FAK (Homo sapiens)
Construct: homozygous knock-in of a HiBiT tag (Promega Corporation, Madison, WI) to the C-terminus of the FAK gene in its natural genomic locus; endogenous in cells; host or cells: JHH-4-FAK-HiBiT clone d01 (CRISPR-Cas9 knock-in at the endogenous locus)
Sequence (Q05397 whole entry): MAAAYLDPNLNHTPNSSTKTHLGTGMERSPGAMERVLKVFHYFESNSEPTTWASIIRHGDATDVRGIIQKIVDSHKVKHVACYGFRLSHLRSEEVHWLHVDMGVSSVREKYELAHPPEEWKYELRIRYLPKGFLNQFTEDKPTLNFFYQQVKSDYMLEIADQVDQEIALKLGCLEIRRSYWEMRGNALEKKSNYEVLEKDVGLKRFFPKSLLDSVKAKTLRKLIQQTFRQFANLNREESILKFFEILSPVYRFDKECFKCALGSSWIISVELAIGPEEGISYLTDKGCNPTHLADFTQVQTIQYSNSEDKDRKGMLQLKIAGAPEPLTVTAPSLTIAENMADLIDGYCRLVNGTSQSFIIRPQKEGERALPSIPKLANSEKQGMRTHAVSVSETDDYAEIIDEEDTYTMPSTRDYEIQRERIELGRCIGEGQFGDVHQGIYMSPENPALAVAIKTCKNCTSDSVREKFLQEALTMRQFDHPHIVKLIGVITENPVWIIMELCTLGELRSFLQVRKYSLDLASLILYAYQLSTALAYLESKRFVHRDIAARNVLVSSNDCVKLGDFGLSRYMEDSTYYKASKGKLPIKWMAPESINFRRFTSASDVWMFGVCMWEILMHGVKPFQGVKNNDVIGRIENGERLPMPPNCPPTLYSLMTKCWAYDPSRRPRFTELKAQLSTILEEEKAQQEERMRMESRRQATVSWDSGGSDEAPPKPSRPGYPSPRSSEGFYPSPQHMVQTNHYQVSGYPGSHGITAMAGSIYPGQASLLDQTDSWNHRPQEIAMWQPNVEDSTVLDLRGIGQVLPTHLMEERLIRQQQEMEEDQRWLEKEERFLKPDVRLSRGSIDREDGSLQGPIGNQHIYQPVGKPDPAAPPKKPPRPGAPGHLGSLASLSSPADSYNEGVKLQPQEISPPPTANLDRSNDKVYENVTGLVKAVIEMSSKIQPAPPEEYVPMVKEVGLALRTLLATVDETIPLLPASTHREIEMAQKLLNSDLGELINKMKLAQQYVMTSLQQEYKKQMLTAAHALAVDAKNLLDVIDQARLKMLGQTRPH
Assay: FAK-HiBiT Degradation Assay
Assay type: cell-based
Conditions: lower limit of the four parameter fit (value A); Ymax derived using DMSO control; JHH-4-FAK-HiBiT cells, two hours
Observation type: FAK HiBiT Ymin

As a guide, the following entries are already answered.
{"Compound": "Cc1cnc(-c2cc(N3CC(F)C3)nc3c2cnn3Cc2ccc3c(c2)CN(C2CCC(=O)NC2=O)C3=O)c(C)c1 (stereo not drawn)", "Experimental value": 11.71}
{"Compound": "O=C1CC[C@@H](N2Cc3cc(Cn4ncc5c(-c6ncc(C7COC7)cc6Cl)cc(N6CC(F)C6)nc54)ccc3C2=O)C(=O)N1 (single isomer, unassigned)", "Experimental value": 42.87}
{"Compound": "O=C1CCC(N2Cc3cc(Cn4ncc5c(-c6ncccc6Cl)cc(N6CC(F)C6)nc54)ccc3C2=O)C(=O)N1 (stereo not drawn)", "Experimental value": 8.18}

(a) CC(C)Oc1cnc(-c2cc(N3CC(F)C3)nc3c2cnn3Cc2ccc3c(c2)CN([C@H]2CCC(=O)NC2=O)C3=O)c(Cl)c1
(b) O=C1CCC(N2Cc3cc(Cn4ncc5c(-c6ncccc6C(F)(F)F)cc(N6CC(F)C6)nc54)ccc3C2=O)C(=O)N1 (stereo not drawn)
Compare the recorded FAK HiBiT Ymin of a and b ; state which is larger. In your reply, give the label of the chosen option.
b
(b: 10.79, a: 6.69)
